// provenance: PubChem BioAssay (NCI)

System: HT29 colon
Test summary: NCI tumour cell line growth inhibition, 48 h
Where a SMILES comes first, the peptide text is derived from it. The star is where a group is joined. Cbz = O=C(OCc1ccccc1)*; NHNH2 = NN*
Parameter: TGI

1) COC(=O)CC(NC(=O)OCc1ccccc1)C(=O)NC(CC(=O)OC)C(=O)NC(CC(=O)OC)C(=O)NC(CC(=O)OC)C(=O)NC(CC(=O)OC)C(=O)NC(CC(=O)OC)C(=O)NN (stereo not drawn) (Cbz-D(OMe)D(OMe)D(OMe)D(OMe)D(OMe)D(OMe)-NHNH2; configuration not given here)
> 100 µM

State the recorded TGI for every item in the following list.
1. N#Cc1ccc(O)c(C2=NCC(c3cccc(Oc4ccccc4)c3)O2)c1 (stereo not drawn)
2. Oc1ccc(CN2CCC(N3CCCCC3)CC2)c2cccnc12
3. O=C(c1ccccc1)c1nnc(C(=O)c2ccccc2)nn1
4. Nc1nc(Cl)c2ncn(Cc3ccc(C45CC6CC(CC(C6)C4)C5)c(O)c3)c2n1
5. CCOc1cc(-c2nc3ccccn3c2/N=C/c2cc(Br)ccc2O)ccc1O
6. O=C(CC1=NCCN1)c1ccccc1
7. COc1cc([N+](=O)[O-])cc2c3c(n(C)c12)[C@@]1(C)CCC2c4ccc(OCc5ccccc5)cc4CCC2C1C3 (stereo partly drawn)

41.6 µM
> 100 µM
> 344 µM
46.7 µM
> 100 µM
> 750 µM
42.8 µM

---

Test system: MOLT-4 leukemia
Test summary: NCI tumour cell line growth inhibition, 48 h; in the data active means GI50 below about 0.43 µM; inactive means the rest
Hi there, use one of these labels in your reply, thanks! active, inactive

1. C=C1C(=O)O[C@H]2[C@H]1CC/C(Cn1cc(-c3ccc(OC)cc3)nn1)=C\CC[C@@]1(C)O[C@@H]21
inactive
2. CC[C@@]1(O)C(=O)OCc2c1cc1n(c2=O)Cc2c-1nc1cc3c(cc1c2CCl)OCO3
active
3. NC(=O)c1ccc(I)c(N)c1
inactive
4. CC[CH2][Sn]([CH2]CC)([O]C(=O)c1cccnc1SC)[O][Sn]([CH2]CC)([CH2]CC)[O]C(=O)c1cccnc1SC
active
5. N#CSc1c[nH]c2cccc(/C=C/C(=O)/C=C(/C=C/c3cccc4[nH]cc(SC#N)c34)OB(F)F)c12
active
6. CCN(CC)c1ccc(/C=C/c2ccc3cc(C)ccc3[n+]2CC)cc1
active

Lab note: next molecule to report on.
What was the test verdict on `C=CC(=O)N1CC2(CCN(c3nc(OC4CCN(CCCOC)CC4)nc4c(OCC(F)(F)F)c(-c5c(C)ccc6[nH]ncc56)c(C5CC5)cc34)CC2)C1` ?
inactive

---

System: UO-31 renal
Test summary: NCI tumour cell line growth inhibition, 48 h
Parameter: TGI

Quick one: give me TGI for each item below, same order please.
1. CC1(C)OCC2OC3([C@H]4OC(C)(C)O[C@@H]4CO)OC(C)(C)OC3C2O1 (stereo not given in full)
2. Cc1cc2[nH]c3c(C#N)c4c(c(=O)n3c2cc1C)CCCC4
3. COC1(OC)CCCCC2c3cccc(OC(C)=O)c3C21OC(C)=O (stereo not given)

> 100 µM
> 100 µM
> 100 µM

Hello, I would appreciate it if you could give TGI for each entry below.
1. C=C1C(=O)O[C@H]2[C@H]1CC/C(COC(=O)c1ccc3ccccc3c1)=C\CC[C@@]1(C)O[C@@H]21
2. O=C(Cc1ccccc1)NN1C(=O)/C(=C\c2ccc([N+](=O)[O-])cc2)SC1=Nc1ccccc1

2.11 µM
> 100 µM
